Biological target: WDR5 (Homo sapiens, UniProt P61964)
Test: Fluorescence Polarization (FP) binding assay
For each entry below, report its IC50 value.
Numbers only, in nM.

[[record]]
compound_structure = "C[C@@H]1CN(c2nccc(-c3c(F)cc(N4CCN(C)[C@@H](C)C4)c(NC(=O)c4c[nH]c(=O)cc4C(F)(F)F)c3F)n2)C[C@H](C)O1"
target_entity = "WDR5 (Homo sapiens, UniProt P61964)"
unit_text = "nM"
value_reported = 15.1

[[record]]
compound_structure = "C[C@@H]1CN(c2cc(F)c(C3=CCCN(C(=O)c4csc(CN(C)C)n4)C3)c(F)c2NC(=O)c2c[nH]c(=O)cc2C(F)(F)F)C[C@H](C)N1C"
target_entity = "WDR5 (Homo sapiens, UniProt P61964)"
unit_text = "nM"
value_reported = 12.7

[[record]]
compound_structure = "C[C@@H]1CN(c2nc(-c3c(F)cc(N4CCN(C)[C@@H](C)C4)c(NC(=O)c4c[nH]c(=O)cc4C(F)(F)F)c3F)cs2)C[C@H](C)O1"
target_entity = "WDR5 (Homo sapiens, UniProt P61964)"
unit_text = "nM"
value_reported = 16.6


Hi team, please reply with IC50 for each item in this list.
1. COc1cc(N2CC=C(c3c(F)cc(N4C[C@@H](C)N(C)[C@@H](C)C4)c(NC(=O)c4c[nH]c(=O)cc4C(F)(F)F)c3F)C2)ncn1
2. CC(C)[C@@H]1CN(c2nccc(-c3c(F)cc(N4CCN(C)[C@@H](C)C4)c(NC(=O)c4c[nH]c(=O)cc4C(F)(F)F)c3F)n2)CCO1

Reply |
14.4
14.9

Ask | I would be grateful if you could share the reported IC50 for C[C@H]1CN(c2cc(F)c(C3=CCCN(c4ncccn4)C3)c(F)c2NC(=O)c2c[nH]c(=O)cc2C(F)F)CCN1C .
Reply | 28.8
